Tested on: β-glucosidase
Assay: In vitro β-glucosidase inhibition
Type: biochemical
Conditions: at 300 µg/mL
Description: The assay was performed in conformity with and used the same formula for amylase.
Test Readout: β-glucosidase % Inhibition (%)
Report the value in % with no unit label.

# example entries with known answers
O=C(O[C@@H]1[C@@H](OC(=O)c2cc(O)c(O)c(O)c2)[C@H](O)O[C@@H]2COC(=O)c3cc(O)c(O)c(O)c3-c3c(cc(O)c(O)c3O)C(=O)O[C@@H]12)c1cc(O)c(O)c(O)c1 [Compound 4, tellimagranidine-I]; 58.44
C[C@@H]1O[C@@H](OC[C@H]2O[C@@H](Oc3c(-c4ccc(O)c(O)c4)oc4cc(O)cc(O)c4c3=O)[C@H](O)[C@@H](O)[C@@H]2O)[C@H](O)[C@H](O)[C@H]1O [Compound 3, quercetin 3-O-rutinoside]; 66
O=C(O[C@H]1[C@H](O)[C@@H](CO)OC(O)[C@@H]1OC(=O)c1cc(O)c(O)c(O)c1)c1cc(O)c(O)c(O)c1 (stereo partly drawn) [Compound 5, 2,3-α, β-digalloy glucose]; 68.43

Proceed to the following item.
Ask: Return β-glucosidase % Inhibition (reported value) for this molecule: O=C(OC[C@H]1O[C@@H](Oc2c(-c3cc(O)c(O)c(O)c3)oc3cc(O[C@@H]4O[C@H](CO)[C@@H](O)[C@H](O)[C@H]4O)cc(O)c3c2=O)[C@H](O)[C@@H](O)[C@@H]1O)c1cc(O)c(O)c(O)c1 [Compound 1]
Result: 92.70
